# System: COLO 205 colon
# assayOverview: NCI tumour cell line growth inhibition, 48 h
readoutKind: TGI

The examples below pair each entry with its known result.
CCOC(=O)c1nc2c3c(ncn2n1)Oc1c(c(-c2ccccc2)nn1-c1ccccc1)C3c1ccc(OC)c(OC)c1 (stereo not given) | > 100 µM
CCOC(C)OCC#CCCBr (stereo not given) | > 100 µM
O=C(CC12CC3CC(CC(C3)C1)C2)NCCOCCOCCNC(=O)c1cc2c(o1)C(=O)c1ccccc1C2=O | 2.76 µM
CCCCOC1CC2(c3ccc(OC)cc3)C(=O)c3ccccc3N2O1 (stereo not given) | 54.1 µM

Inquiry: Which TGI value belongs to CCCCCCC1CCC2CCCC(C)N12 (stereo not given) ?
Reply text: 34.1 µM

Inquiry: I would be grateful if you could share the reported TGI for COCCNCC(O)Cn1c2ccc(Cl)cc2c2cc(Cl)ccc21 (stereo not given) .
Reply text: 3.83 µM

Inquiry: What value of TGI has been recorded for this entry: O=C(Cn1ccnc1[N+](=O)[O-])N(CCO)CCO
Reply text: > 1250 µM

Inquiry: Bench note: what TGI did CN(C)CC1CCC/C(=C\c2ccc(N(C)C)cc2)C1=O (stereo not given) show?
Reply text: 6.65 µM

Inquiry: Name the recorded TGI for O=C1C(=O)c2ccc(Br)cc2-c2cc(Br)ccc21 .
Reply text: > 100 µM

Inquiry: Record request: TGI value, item COC1=CC(c2ccc[nH]2)=N/C1=C\c1[nH]c(C)c(C(=O)CCC(=O)Oc2ccc3c(c2)CCC2C3CC[C@]3(C)C(=O)CC[C@@H]23)c1C (stereo not given in full)
Reply text: > 100 µM

----------
# System: RPMI-8226 leukemia
# assayOverview: NCI tumour cell line growth inhibition, 48 h; in the data active means GI50 below about 0.43 µM; inactive means the rest
# valid calls are Yes for active, No for inactive; nothing else

Inquiry: Kindly provide the recorded test outcome for the following compound: Cc1ccc(S(=O)(=O)N(C)C)cc1[N+](=O)[O-]
Reply text: No

Inquiry: // param item: CCC(=O)Sc1ccccc1C(=O)Nc1ccc(Cl)cc1 ; yields the recorded call
Reply text: No

----------
# Test system: NCI-H522 lung
# assayOverview: NCI tumour cell line growth inhibition, 48 h
Below, each entry is listed with its recorded TGI.
Write down the numeric answer in µM and omit the unit.

COC(=O)N1[C@H]2Cc3c(OC)c(C)c(OC)c(OC)c3[C@@H]1/C(=C\c1cc(OC)c(OC)c(C)c1OC)N(Cc1ccccc1)C2=O | 37.2

Inquiry: Sample C[C@]12CC[C@H](O)CC1=CC[C@@H]1[C@@H]2CC[C@]2(C)C(=O)/C(=C/c3cccc(OCCCn4ccnc4)c3)C[C@@H]12 — what was its TGI?
Reply text: 34.2

----------
# System: UACC-257 melanoma
# assayOverview: NCI tumour cell line growth inhibition, 48 h
Property: TGI; scope: individual compounds
Give your result in µM as a bare value.

O=C1CC(NC(=O)C(F)(F)F)c2c(Br)sc(N3CCC(c4ccccc4)CC3)c21 (stereo not given) | 82.4
Cc1cc(N(CCCl)CCCl)ccc1C=Nc1cccnc1 | 23.2
Nc1ccccc1C#C/C=C\C#Cc1ccc(F)cc1F | 50

We now examine a further compound.
Inquiry: Requested field: TGI. Item: Oc1c(OCc2nnc(CCCCCCCCc3nnc(COc4ccc5ccccc5c4O)n3Nc3ccccc3)n2Nc2ccccc2)ccc2ccccc12
Reply text: 25.7
